Test system: myeloid leukemia cell line SET2
Test: cytotoxicity, SET2 (CellTitre Glo)
Format: cell-based
Conditions: unit inferred, read-out: IC50 (cell selectivity data), ceph-AMS
test-readout: IC50

Return reported IC50; argument: Nc1ncnc2c1ncn2[C@@H]1O[C@H](COS(=O)(=O)NCC2=C(C(=O)O)N3C(=O)[C@@H](NC(=O)Cc4cccs4)[C@H]3SC2)[C@@H](O)[C@H]1O [ceph-AMS]
~2200 nM

---

Tested on: Jurkat T cells
Test: Jurkat viability with prodrug and supernatant from CPG2-secreting HEK293T cells
Assay type: cell-based, human
Settings: Homo sapiens; with CPG2 supernatant; read-out: IC50, co-treatment with supernatant from CPG2-transfected HEK293T cells
test-readout: IC50 (nM)
One number for each entry, in nM.

Return reported IC50; argument: `NS(=O)(=O)OC[C@H]1O[C@@H](n2cnc3c(NC(=O)N[C@@H](CCC(=O)O)C(=O)O)ncnc32)[C@H](O)[C@@H]1O`
50

---

Tested on: HEK293T
Experiment: in vitro cytotoxicity, HEK293T
Format: cell-based, human
Settings: HEK293-t; unit inferred; read-out: IC50 (cell selectivity data), ceph-AMS
test-readout: pIC50
Answers are plain numbers, as −log10 of the molar value.

Requested read-out pIC50, target or system HEK293T, entry `Nc1ncnc2c1ncn2[C@@H]1O[C@H](COS(=O)(=O)NCC2=C(C(=O)O)N3C(=O)[C@@H](NC(=O)Cc4cccs4)[C@H]3SC2)[C@@H](O)[C@H]1O`
5.70
